Where do the numbers come from? From paper PMC8875425.

experimental.target: KIX domain of CREB-binding protein (CBP) (UniProt P45481 588-672)
Sequence (P45481 588-672): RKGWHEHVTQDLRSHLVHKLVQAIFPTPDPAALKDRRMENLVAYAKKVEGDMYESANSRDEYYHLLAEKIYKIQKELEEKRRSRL
experiment.summary: fluorescence polarisation
Square brackets hold non-standard residues; d marks the D form. pS = N[C@@H](COP(=O)(O)O)C(=O)O
assay.endpoint: IC50 (µM)
Unit µM implied. Number only.

Provide IC50 value for the following binder: Ac-LSRRP[pS]YRKILNDLSSDAP-NH2 [peptide 7] 50

# next binder below
Please give the documented IC50 of Ac-LKRRP[pS]YRKILNDLSSDAP-NH2 [peptide 7′] 24.2
